Give EC50 for every item shown.
- STUDY SYSTEM: G-protein coupled receptor 151 (Homo sapiens)
- PROCEDURE SUMMARY: GPR151 activator potency, dose response, cell-based (AID 1508610)
- STUDY CONDITIONS: cell-based GPR151 activation reporter
Active and inactive are the calls of the source. How the calls were made is not given here.

Dear colleague, I am looking for the recorded EC50 of the following compound: "CCCCCCCC(=O)N/N=C/c1ccccc1OC"
> 28 µM (inactive)

Dear colleague, I am looking for the recorded EC50 of the following compound: "CC(=O)OCC1=C(C(=O)O)N2C(=O)[C@@H](NC(=O)Cc3cccs3)[C@H]2SC1"
> 28 µM (inactive)

Dear colleague, I am looking for the recorded EC50 of the following compound: "Cc1cc(C)c(C#N)c(Oc2cccc(N)c2)n1"
> 28 µM (inactive)

Dear colleague, I am looking for the recorded EC50 of the following compound: "CCOc1cc(/C=c2/sc3n(c2=O)CCN=3)ccc1O"
> 40 µM (inactive)

Dear colleague, I am looking for the recorded EC50 of the following compound: "Cc1c(C(=O)Nc2cc(Sc3ccc(F)cc3)cc([N+](=O)[O-])c2)sc2ncn(Cc3ccccc3F)c(=O)c12"
> 20.2 µM (inactive)

Dear colleague, I am looking for the recorded EC50 of the following compound: "COc1ccc(Cl)cc1NC(=O)Nc1cccc([N+](=O)[O-])c1C"
> 28 µM (inactive)

Dear colleague, I am looking for the recorded EC50 of the following compound: "CSc1nc(-c2ccccc2)cn1-c1ccc(F)cc1"
> 35.5 µM (inactive)

Dear colleague, I am looking for the recorded EC50 of the following compound: "CC(C)N(CCNc1nc(N2CCC(N3CCOCC3)CC2)nc2c1ncn2C1CCCCC1)C(C)C"
> 29.5 µM (inactive)

Dear colleague, I am looking for the recorded EC50 of the following compound: "CC1(C)Cc2cccc(OCC(=O)NC3=NCCS3)c2O1"
> 29.3 µM (inactive)

Dear colleague, I am looking for the recorded EC50 of the following compound: Cc1ccc(-n2nc3c(c2NC(=O)c2cccc(F)c2)CS(=O)C3)c(C)c1 (stereo unspecified)
> 27.8 µM (inactive)

Dear colleague, I am looking for the recorded EC50 of the following compound: "COc1cc(Nc2cc(-c3ccc(C(N)=O)cc3)nc(N)n2)cc(OC)c1OC"
> 25.6 µM (inactive)

----------
Give EC50 for every item shown.
- STUDY SYSTEM: G-protein coupled receptor 151 (Homo sapiens) (UniProt Q8TDV0)
- Sequence (Q8TDV0 whole entry, looked up): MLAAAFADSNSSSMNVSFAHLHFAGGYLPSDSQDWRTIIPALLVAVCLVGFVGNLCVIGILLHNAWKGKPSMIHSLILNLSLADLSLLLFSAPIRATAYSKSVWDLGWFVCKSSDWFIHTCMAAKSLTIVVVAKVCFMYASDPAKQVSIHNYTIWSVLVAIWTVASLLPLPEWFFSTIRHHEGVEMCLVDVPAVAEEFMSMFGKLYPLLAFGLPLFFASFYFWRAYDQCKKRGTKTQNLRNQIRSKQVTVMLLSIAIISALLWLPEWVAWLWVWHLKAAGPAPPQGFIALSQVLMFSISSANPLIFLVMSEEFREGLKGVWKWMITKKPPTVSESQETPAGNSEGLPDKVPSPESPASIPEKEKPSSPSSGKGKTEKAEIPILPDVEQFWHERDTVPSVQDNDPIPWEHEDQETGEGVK
- PROCEDURE SUMMARY: GPR151 activator potency, dose response, cell-based (AID 1508610)
- STUDY CONDITIONS: cell-based GPR151 activation reporter
Activity calls are given as the source filed them. The rule behind the calls is not given here.

Dear colleague, I am looking for the recorded EC50 of the following molecule: "O=c1c2ccccc2cnn1-c1nc2ccccc2[nH]1"
> 29.9 µM (inactive)

Dear colleague, I am looking for the recorded EC50 of the following molecule: CCSCCOC(=O)C1=C(C)NC(=O)NC1c1ccc(OC(F)(F)F)cc1 (centres undefined)
> 22.5 µM (inactive)

Dear colleague, I am looking for the recorded EC50 of the following molecule: "O=C(Nc1nc2ccccc2s1)c1ccccc1F"
> 31.9 µM (inactive)

Dear colleague, I am looking for the recorded EC50 of the following molecule: "CCc1ccc2c(c1)/C(=C/C(=O)c1cccs1)C(=O)N2"
> 28 µM (inactive)

Dear colleague, I am looking for the recorded EC50 of the following molecule: "N#Cc1nc2[nH]c(-c3ccccc3)cc(=O)n2c1C#N"
> 30 µM (inactive)

Dear colleague, I am looking for the recorded EC50 of the following molecule: "O=C(O)c1ccc2nc(-c3ccccc3)[nH]c2c1"
> 26.3 µM (inactive)

Dear colleague, I am looking for the recorded EC50 of the following molecule: CC(C)CC(=O)NCC1CCC2(CCN(Cc3ccccc3F)CC2)O1 (centres undefined)
> 28 µM (inactive)

Dear colleague, I am looking for the recorded EC50 of the following molecule: "CN1CCN(C(=O)c2ccc(-c3nc4ccc(C(=O)NCCOc5ccccc5)cc4s3)cc2)CC1"
> 28.1 µM (inactive)

Dear colleague, I am looking for the recorded EC50 of the following molecule: "CC(C)CCN1C(=O)C(C)(C)COc2cc(NC(=O)c3ccc4c(c3)OCO4)ccc21"
> 28 µM (inactive)

Dear colleague, I am looking for the recorded EC50 of the following molecule: "CC1=NCCc2c1[nH]c1cc(O)ccc21"
> 28 µM (inactive)

Dear colleague, I am looking for the recorded EC50 of the following molecule: COC(=O)C(NC(=O)c1ccc(Br)cc1)c1ccccc1 (centres undefined)
> 28 µM (inactive)

Dear colleague, I am looking for the recorded EC50 of the following molecule: "CCN1CCN(Cc2ccc(NC(=O)Nc3ccccc3C)cc2)CC1"
> 28 µM (inactive)

Dear colleague, I am looking for the recorded EC50 of the following molecule: O=C(O)C1CCCN(c2nn3cc(-c4ccc(F)cc4)nc3s2)C1 (centres undefined)
> 28 µM (inactive)

Dear colleague, I am looking for the recorded EC50 of the following molecule: "O=c1oc(Nc2cccc(C(F)(F)F)c2)nc2ccccc12"
> 28.4 µM (inactive)

Dear colleague, I am looking for the recorded EC50 of the following molecule: "Clc1nc(NCc2ccccc2)c2ncn(-c3ccccc3)c2n1"
> 28.1 µM (inactive)

Dear colleague, I am looking for the recorded EC50 of the following molecule: "COC(=O)c1cc2c(N3CCC(Cc4ccccc4)CC3)ncnc2s1"
> 27.4 µM (inactive)

Dear colleague, I am looking for the recorded EC50 of the following molecule: "COc1ccc(-c2ccc(C(=O)Nc3ccccc3)s2)cn1"
> 28 µM (inactive)

Dear colleague, I am looking for the recorded EC50 of the following molecule: "Cn1c(=O)c2c(nc(NCCO)n2Cc2ccccc2F)n(C)c1=O"
> 34.4 µM (inactive)

Dear colleague, I am looking for the recorded EC50 of the following molecule: "O=C(Nc1ncc([N+](=O)[O-])s1)c1ccc(Br)cc1F"
> 27.5 µM (inactive)

Dear colleague, I am looking for the recorded EC50 of the following molecule: "COc1ccc2o/c(=N\NC(=O)c3ccccc3Nc3ccccc3)c(C(N)=O)cc2c1"
> 28 µM (inactive)

Dear colleague, I am looking for the recorded EC50 of the following molecule: "O=C(O)c1cccc(COc2ccc(CO)cc2Br)c1"
> 28 µM (inactive)

Dear colleague, I am looking for the recorded EC50 of the following molecule: "C=CCN1/C(=C\C=C2\C=Nc3ccc(Br)cc32)C=Cc2ccc(C)cc21"
> 21.9 µM (inactive)

Dear colleague, I am looking for the recorded EC50 of the following molecule: "CNc1nc2c(-c3ccc(Cl)cc3)nnn2c2ccccc12"
> 28 µM (inactive)

Dear colleague, I am looking for the recorded EC50 of the following molecule: "O=C(NCCO)c1ccc2nc(-c3csc4ccccc34)sc2c1"
> 28.1 µM (inactive)
